Reference source: patent US10610520B2

# system name: His-hMAGL (recombinant polyhistidine tagged human MAGL protein) (Homo sapiens)
# Construct: made in house; host or cells: E. coli BL21(DE3)
# Sequence (Q99685 whole entry): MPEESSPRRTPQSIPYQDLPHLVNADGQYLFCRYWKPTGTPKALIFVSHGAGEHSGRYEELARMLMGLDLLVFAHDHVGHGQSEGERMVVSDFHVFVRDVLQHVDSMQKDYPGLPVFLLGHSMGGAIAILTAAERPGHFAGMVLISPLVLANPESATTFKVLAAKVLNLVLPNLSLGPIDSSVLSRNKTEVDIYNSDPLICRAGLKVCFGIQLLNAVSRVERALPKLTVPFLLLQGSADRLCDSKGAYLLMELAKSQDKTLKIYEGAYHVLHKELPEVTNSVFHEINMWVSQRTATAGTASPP
# assay details: Measurement of MAGL inhibitory activity (arachidonic acid production from 2-arachidonylglycerol, RapidFire-mass spectrometry)
# Assay type: biochemical
# condition description: MAGL inhibitory rate, test compound 10 μM, 60 min preincubation, 2-arachidonylglycerol substrate
Quick reference: inhibition at 10 µM of the listed items.
Answer with the value and then the unit.

O=C1CCC2(CN(C(=O)c3ccc(-c4cc(F)c(F)c(F)c4)cc3)C2)N1 [Example 68]; 93%
Cc1ccc(F)c(-c2ccc3c(Cl)c(C(=O)N4CC5(CCC(=O)N5)C4)sc3c2)c1 [Example 202]; 100%
O=C1CCC2(CN(C(=O)c3sc4ccccc4c3Cl)C2)N1 [Example 134]; 98%

Exercise: Using known records, supply inhibition at 10 µM for O=C1NC2(CO1)CN(C(=O)c1sc3cc(C(F)(F)F)ccc3c1Cl)C2 [Example 241]
Key: 101%

Exercise: Answer with reported inhibition at 10 µM of O=C1NC2(CO1)CN(C(=O)c1sc3cc(C4CC4)cc(F)c3c1Cl)C2 [Example 311]
Key: 101%

Exercise: Retrieve inhibition at 10 µM measured for O=C1NC2(CO1)CN(C(=O)c1sc3cc(F)cc(OCC4CC4)c3c1Cl)C2 [Example 363] and print it.
Key: 99%

Exercise: Supply inhibition at 10 µM value. Item: O=C1CCC2(CN(C(=O)c3ccc(-c4cccc(OCC(F)(F)F)c4)cc3)C2)N1 [Example 170]
Key: 99%

Exercise: Please report inhibition at 10 µM for the following compound: O=C1NC2(CO1)CN(C(=O)c1sc3cc(C(F)F)ccc3c1Cl)C2 [Example 278]
Key: 101%

Exercise: Specify inhibition at 10 µM for O=C1CCC2(CN(C(=O)c3sc4ccc(C(F)(F)F)cc4c3Cl)C2)N1 [Example 256] and stop.
Key: 99%
